Reported solubility by item:
Test: physchem
Type: physicochemical
Method: Peptide used as model: H-Gly-Gly-Gly-NH2 H-Gly-Gly-Gly-NH2 and H-Gly-Gly-Gly-NH-(TIPS2-Dpm) were synthesized, CPME (cyclopentyl methyl ether) was saturated with each of the compounds at 25° C., and the solubility was measured.
Where a SMILES comes first, the peptide text is derived from it.
The figure you give is taken to be in mM; do not add the unit.

compound | solubility / mM
CC(C)[Si](OCCCCCCCCCCCOc1ccc(C(NC(=O)CNC(=O)CNC(=O)CN)c2ccc(OCCCCCCCCCCCO[Si](C(C)C)(C(C)C)C(C)C)cc2)cc1)(C(C)C)C(C)C [H-Gly-Gly-Gly-NH-(TIPS2-Dpm)] | 426

In the following, a different compound is considered.
Given item NCC(=O)NCC(=O)NCC(N)=O [H-Gly-Gly-Gly-NH2, reference compound] (H-Gly-Gly-Gly-NH2) , the value recorded as its solubility is 0.039
